- TEST_TARGET: Sentrin-specific protease 7 (Homo sapiens)
- EXPERIMENT_NOTES: SENP7 protease inhibitors, retest, confirmation, biochemical, luminescence, single concentration (AID 488917)
- TEST_PARAMETERS: recombinant SENP7, Z-RLRGG-aminoluciferin luminescence, 40 min; at 12.5 µM; stronger effect = higher value
The list shows a part of the results. Activity calls are given as the source filed them.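 The calls were made as follows: active = mean inhibition above about 50% in the one-dose retest (limit read from the data); inactive = the rest.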
Give inhibition for every item shown.

QUERY: Which inhibition value belongs to Cc1ccc(OCc2nc3ccccc3n2C)cc1 ?
RESULT: 79% (active)

QUERY: Which inhibition value belongs to COc1ccc(C(=O)/C=C/Nc2ccccn2)cc1 ?
RESULT: 102% (active)

QUERY: Which inhibition value belongs to Cc1ccc(OC(=O)c2cc3ccccc3o2)cc1 ?
RESULT: 90.8% (active)

QUERY: Which inhibition value belongs to O=C(Nc1ccc2sc3ccccc3c(=O)c2c1)c1ccccc1Cl ?
RESULT: 13.5% (inactive)

QUERY: Which inhibition value belongs to Cc1cccc(/C=N/NC(=O)CNc2cccc3ccccc23)n1 ?
RESULT: 3.9% (inactive)

Give inhibition for all molecules that follow.
1. O=C(Nc1cc2ccccc2oc1=O)C1CCCCC1
2. Cn1c(-c2ccc(C(=O)c3ccccc3)s2)nc2ccccc21
3. Cc1cc(NC(=O)Nc2ccccc2[N+](=O)[O-])no1

RESULT:
["19.1% (inactive)", "17.8% (inactive)", "77.2% (active)"]
